Values from patent US20240139333A1

# ASSAY TEXT: pH stability study
# Type: physicochemical
# REPORTED CONDITIONS: pH 3 buffer, 20° C., 480 min
So basically: is % Remaining under 50%? Then 1.0. Not under? Then 0.0.

Below are worked cases with known answers.
| MOLECULE | CATEGORY LABEL |
| --- | --- |
| O=C(CCc1cccnc1)Oc1c(F)c(F)cc(F)c1F | 1.0 |
| O=C(CCc1cccnc1)Oc1ccc([N+](=O)[O-])cc1 [Compound D, 4-Nitrophenyl-3-(pyridin-3-yl)propanoate] | 0.0 |
| O=C(CCc1cccnc1)ON1C(=O)CCC1=O | 1.0 |
| O=C(CCc1cccnc1)Oc1c(F)cccc1F | 0.0 |

# ---- query molecule ----
### Prompt Dear reviewer, please state whether `O=C(CCc1cccnc1)Oc1c(Cl)cccc1Cl` has % Remaining strictly beneath 50%.
### Response 0.0

----------
# ASSAY TEXT: pH stability study
# Assay type: physicochemical
# REPORTED CONDITIONS: pH 5 buffer, 20° C., 30 min
Listed next: entries and their corresponding % Remaining.
Report the value in % with no unit label.

| COMPOUND | OBSERVED VALUE |
| --- | --- |
| O=C(CCc1cccnc1)Oc1ccc([N+](=O)[O-])cc1 [Compound D, 4-Nitrophenyl-3-(pyridin-3-yl)propanoate] | 99.54 |
| O=C(CCc1cccnc1)ON1C(=O)CCC1=O [Compound E] | 52.98 |
| O=C(CCc1cccnc1)Oc1c(F)c(F)cc(F)c1F [Compound C] | 86.91 |
| O=C(CCc1cccnc1)Oc1c(Cl)cccc1Cl [Compound A] | 100 |

### Prompt I have this compound here, O=C(CCc1cccnc1)Oc1c(F)cccc1F [Compound B] , and I need its recorded % Remaining.
### Response 99.50

----------
# ASSAY TEXT: Temperature stability study in H2O
# Type: physicochemical
# REPORTED CONDITIONS: 50° C., 240 min
Param threshold (70%) applies to % Remaining; output 1 (yes) when value >= threshold, 0 (no) when value < threshold.

| MOLECULE | CATEGORY LABEL |
| --- | --- |
| O=C(CCc1cccnc1)ON1C(=O)CCC1=O [Compound E] | 0 (no) |
| O=C(CCc1cccnc1)Oc1ccc([N+](=O)[O-])cc1 [Compound D, 4-Nitrophenyl-3-(pyridin-3-yl)propanoate] | 0 (no) |
| O=C(CCc1cccnc1)Oc1c(F)cccc1F [Compound B] | 1 (yes) |
| O=C(CCc1cccnc1)Oc1c(Cl)cccc1Cl [Compound A] | 1 (yes) |

### Prompt Identify whether the reported % Remaining of the following molecule is 70% or greater: O=C(CCc1cccnc1)Oc1c(F)c(F)cc(F)c1F [Compound C]
### Response 0 (no)

----------
# ASSAY TEXT: pH stability study
# Assay type: physicochemical
# REPORTED CONDITIONS: pH 5 buffer, 20° C., 15 min
PROPERTY: % Remaining (%)
API: value field is a number in %; no unit string.

| MOLECULE | % Remaining / % |
| --- | --- |
| O=C(CCc1cccnc1)ON1C(=O)CCC1=O | 85.59 |
| O=C(CCc1cccnc1)Oc1c(F)c(F)cc(F)c1F | 96.06 |
| O=C(CCc1cccnc1)Oc1c(Cl)cccc1Cl | 100 |

### Prompt Which value of % Remaining has been reported for `O=C(CCc1cccnc1)Oc1c(F)cccc1F` in the records?
### Response 100

### Prompt // lookup % Remaining for O=C(CCc1cccnc1)Oc1ccc([N+](=O)[O-])cc1 [Compound D, 4-Nitrophenyl-3-(pyridin-3-yl)propanoate]
### Response 99.83

----------
# ASSAY TEXT: Comparative active ester reactivity study with HOA nucleophile (benzhydroxamic acid)
# REPORTED CONDITIONS: Benzhydroxamic Acid 1 eq., 30 min, 22±2° C.
PROPERTY: % Active Ester Remaining (%)
API: value field is a number in %; no unit string.

See these solved cases before continuing.
| MOLECULE | % Active Ester Remaining, % |
| --- | --- |
| O=C(CCc1cccnc1)ON1C(=O)CCC1=O [Compound E] | 0.85 |
| O=C(CCc1cccnc1)Oc1ccc([N+](=O)[O-])cc1 [Compound D, 4-Nitrophenyl-3-(pyridin-3-yl)propanoate] | 84.28 |
| O=C(CCc1cccnc1)Oc1c(F)c(F)cc(F)c1F [Compound C] | 45.60 |
| O=C(CCc1cccnc1)Oc1c(Cl)cccc1Cl [Compound A] | 95.97 |

Now for the molecule whose % Active Ester Remaining we want.
### Prompt Quick check: % Active Ester Remaining of O=C(CCc1cccnc1)Oc1c(F)cccc1F [Compound B] ?
### Response 69.62

----------
This section presents molecules with their documented % Remaining values.
# ASSAY TEXT: pH stability study
# Type: physicochemical
# REPORTED CONDITIONS: pH 3 buffer, 20° C., 15 min
Quick note: give the figure in %, leave out the unit.

Solved entries (count: 2):
| MOLECULE | VALUE UNITS | % Remaining |
| --- | --- | --- |
| O=C(CCc1cccnc1)Oc1c(F)cccc1F [Compound B] | % | 100 |
| O=C(CCc1cccnc1)Oc1c(Cl)cccc1Cl [Compound A] | % | 100 |

### Prompt For O=C(CCc1cccnc1)Oc1ccc([N+](=O)[O-])cc1 [Compound D, 4-Nitrophenyl-3-(pyridin-3-yl)propanoate] , what is its reported % Remaining?
### Response 100

### Prompt Fill in the blank: the reported % Remaining of O=C(CCc1cccnc1)ON1C(=O)CCC1=O [Compound E] is ____.
### Response 80.40

### Prompt Query: % Remaining; subject: O=C(CCc1cccnc1)Oc1c(F)c(F)cc(F)c1F [Compound C]
### Response 98.19

----------
# ASSAY TEXT: Comparative active ester reactivity study with HOPO nucleophile
# REPORTED CONDITIONS: 1,2-HOPO 1 eq., 15 min, 22±2° C.
PROPERTY: % Active Ester Remaining (%)
Output spec: scalar in %, unitless text.

Solved entries (count: 4):
| COMPOUND | VALUE UNITS | OBSERVED VALUE |
| --- | --- | --- |
| O=C(CCc1cccnc1)ON1C(=O)CCC1=O | % | 15.47 |
| O=C(CCc1cccnc1)Oc1c(Cl)cccc1Cl | % | 99.32 |
| O=C(CCc1cccnc1)Oc1ccc([N+](=O)[O-])cc1 [Compound D, 4-Nitrophenyl-3-(pyridin-3-yl)propanoate] | % | 99.18 |
| O=C(CCc1cccnc1)Oc1c(F)c(F)cc(F)c1F | % | 40.02 |

As a next step, examine the compound that follows.
### Prompt Given the compound `O=C(CCc1cccnc1)Oc1c(F)cccc1F` , what is its reported % Active Ester Remaining?
### Response 98.85

----------
# ASSAY TEXT: Comparative active ester reactivity study with HOA nucleophile (benzhydroxamic acid)
# REPORTED CONDITIONS: Benzhydroxamic Acid 1 eq., 60 min, 22±2° C.
PROPERTY: % Active Ester Remaining (%)
Value expressed in %; do not type the unit.

Would you please look over these solved cases?
| COMPOUND | % Active Ester Remaining / % |
| --- | --- |
| O=C(CCc1cccnc1)ON1C(=O)CCC1=O | 0.67 |
| O=C(CCc1cccnc1)Oc1c(F)c(F)cc(F)c1F | 32.39 |
| O=C(CCc1cccnc1)Oc1c(F)cccc1F | 56.57 |
| O=C(CCc1cccnc1)Oc1c(Cl)cccc1Cl | 92.36 |

Consider the record given below.
### Prompt Recorded % Active Ester Remaining of O=C(CCc1cccnc1)Oc1ccc([N+](=O)[O-])cc1 [Compound D, 4-Nitrophenyl-3-(pyridin-3-yl)propanoate] , please.
### Response 74.58

----------
# ASSAY TEXT: pH stability study
# Format: physicochemical
# REPORTED CONDITIONS: pH 5 buffer, 20° C., 240 min
Readings of % Remaining for the listed compounds
Please format your answer as a value with the unit trailing.

| COMPOUND | % Remaining |
| --- | --- |
| O=C(CCc1cccnc1)Oc1c(Cl)cccc1Cl [Compound A] | 100% |
| O=C(CCc1cccnc1)Oc1c(F)cccc1F [Compound B] | 96.36% |

### Prompt Which % Remaining reading was recorded for the compound O=C(CCc1cccnc1)Oc1ccc([N+](=O)[O-])cc1 [Compound D, 4-Nitrophenyl-3-(pyridin-3-yl)propanoate] ?
### Response 97.52%

### Prompt What does the record list as % Remaining for O=C(CCc1cccnc1)ON1C(=O)CCC1=O [Compound E] ?
### Response 2.33%

### Prompt Param item = O=C(CCc1cccnc1)Oc1c(F)c(F)cc(F)c1F [Compound C] ; retrieve measured % Remaining.
### Response 45.26%

----------
# ASSAY TEXT: Comparative active ester reactivity study with HOA nucleophile (N-hydroxy-N-methylbenzamide)
# REPORTED CONDITIONS: N-Hydroxy-N-methylbenzamide 1 eq., 120 min, 22±2° C.
PROPERTY: % Active Ester Remaining

| COMPOUND | OBSERVED VALUE |
| --- | --- |
| O=C(CCc1cccnc1)Oc1ccc([N+](=O)[O-])cc1 [Compound D, 4-Nitrophenyl-3-(pyridin-3-yl)propanoate] | 65.46% |
| O=C(CCc1cccnc1)Oc1c(F)c(F)cc(F)c1F | 50.09% |
| O=C(CCc1cccnc1)ON1C(=O)CCC1=O | 6.52% |
| O=C(CCc1cccnc1)Oc1c(F)cccc1F | 56.72% |

### Prompt # input compound: `O=C(CCc1cccnc1)Oc1c(Cl)cccc1Cl` ; wanted: its % Active Ester Remaining
### Response 96.11%
